Tested on: 324938-238-R-J1-PDC complex spheroid viability
Assay: Anticancer human tumor 324938-238-R-J1-PDC patient-derived bladder carcinoma cell line growth inhibition
Conditions: second compound 0.316 µM; first compound 0.1 µM; stronger effect = lower value

MOLECULE	MEASURE_UNIT	viability, T/C
COc1ccc([C@@H](O)c2cc(-c3ncnc4cc(N5CCOCC5)ccc34)c(F)cc2Cl)nn1 + NC1CCC(NC2CC2c2ccccc2)CC1	%	76.7
CC1(C)CCC(CN2CCN(c3ccc(C(=O)NS(=O)(=O)c4ccc(NCC5CCOCC5)c([N+](=O)[O-])c4)c(Oc4cnc5[nH]ccc5c4)c3)CC2)=C(c2ccc(Cl)cc2)C1 + NC1CC1c1ccc(-c2cccc(O)c2)cc1	%	74.9
CC(C)CC(NC(=O)C(Cc1ccccc1)NC(=O)c1cnccn1)B(O)O (stereo unspecified) + NC1CC1c1ccc(-c2cccc(O)c2)cc1	%	0.14
CC(C)c1c(-c2ccccc2)nc2c(C#N)c[nH]n2c1=O + NC1CC1c1ccc(-c2cccc(O)c2)cc1	%	84.9
O=C(c1cc(Cc2n[nH]c(=O)c3ccccc23)ccc1F)N1CCN(C(=O)C2CC2)CC1 + NC1CC1c1ccc(-c2cccc(O)c2)cc1	%	78.5
COc1cc(Nc2ncc3c(n2)-c2ccc(Cl)cc2C(c2c(F)cccc2OC)=NC3)ccc1C(=O)O + NC1CC1c1ccc(-c2cccc(O)c2)cc1	%	16

====

Test system: 324938-238-R-J1-PDC complex spheroid viability
Assay: Anticancer human tumor 324938-238-R-J1-PDC cell line growth inhibition; active means viability on the fitted dose curve at most 10% of control; inactive means the rest
Conditions: second compound 0.1 µM; first compound 0.000949 µM
Outcome codes: active, inactive

COMPOUND	CLASS_LABEL
Nc1ccn(C2OC(CO)C(O)C2(F)F)c(=O)n1 (stereo unspecified) + NC1CCC(NC2CC2c2ccccc2)CC1	active
CCc1c2c(nc3ccc(O)cc13)-c1cc3c(c(=O)n1C2)COC(=O)[C@]3(O)CC + NC1CCC(NC2CC2c2ccccc2)CC1	active
Nc1ncn(C2CC(O)C(CO)S2)c(=O)n1 (stereo unspecified) + NC1CC1c1ccc(-c2cccc(O)c2)cc1	inactive
Nc1ncn(C2CC(O)C(CO)S2)c(=O)n1 (stereo unspecified) + NC1CCC(NC2CC2c2ccccc2)CC1	inactive
CCc1c2c(nc3ccc(O)cc13)-c1cc3c(c(=O)n1C2)COC(=O)[C@]3(O)CC + NC1CC1c1ccc(-c2cccc(O)c2)cc1	active
Nc1ccn(C2OC(CO)C(O)C2(F)F)c(=O)n1 (stereo unspecified) + NC1CC1c1ccc(-c2cccc(O)c2)cc1	inactive

====

System: 324938-238-R-J1-PDC complex spheroid viability
Test: Anticancer human tumor 324938-238-R-J1-PDC cell line growth inhibition;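 further: spheroids also contain HUVEC and human MSCs and agents combined with iadademstat; spheroids exposed to agents for 7 days before readout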
Details: curve of first compound; second compound 0.316 µM
pIC50: −log10 of the molar value.

COMPOUND	OPERATOR	pIC50
CC1(C)CCC(CN2CCN(c3ccc(C(=O)NS(=O)(=O)c4ccc(NCC5CCOCC5)c([N+](=O)[O-])c4)c(Oc4cnc5[nH]ccc5c4)c3)CC2)=C(c2ccc(Cl)cc2)C1 + NC1CCC(NC2CC2c2ccccc2)CC1	=	5.25
CCc1c2c(nc3ccc(O)cc13)-c1cc3c(c(=O)n1C2)COC(=O)[C@]3(O)CC + NC1CC1c1ccc(-c2cccc(O)c2)cc1	>	9.02
Nc1ccn(C2OC(CO)C(O)C2(F)F)c(=O)n1 (configuration not stated) + NC1CCC(NC2CC2c2ccccc2)CC1	>	9.02
NS(=O)(=O)OCC1CC(n2ccc3c(NC4CCc5ccccc54)ncnc32)CC1O (configuration not stated) + NC1CCC(NC2CC2c2ccccc2)CC1	=	6.47
CCc1c2c(nc3ccc(O)cc13)-c1cc3c(c(=O)n1C2)COC(=O)[C@]3(O)CC + NC1CCC(NC2CC2c2ccccc2)CC1	>	9.02
Nc1ncn(C2CC(O)C(CO)O2)c(=O)n1 (configuration not stated) + NC1CCC(NC2CC2c2ccccc2)CC1	=	6.59
CC[C@@]1(O)C(=O)OCc2c1cc1n(c2=O)Cc2cc3c(CN(C)C)c(O)ccc3nc2-1 + NC1CCC(NC2CC2c2ccccc2)CC1	=	8.83

====

Test system: 324938-238-R-J1-PDC complex spheroid viability
Assay: Anticancer human tumor 324938-238-R-J1-PDC cell line growth inhibition;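 further: spheroids also contain HUVEC and human MSCs and agents combined with iadademstat; spheroids exposed to agents for 7 days before readout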
Details: second compound 0.316 µM; first compound 10 µM; stronger effect = lower value
Classify by viability, T/C. Ranges: I (below 20%), II (20% to below 40%), III (40% or more)

MOLECULE	ASSAYED_SYSTEM	CLASS_LABEL
COc1ccc([C@@H](O)c2cc(-c3ncnc4cc(N5CCOCC5)ccc34)c(F)cc2Cl)nn1 + NC1CCC(NC2CC2c2ccccc2)CC1	324938-238-R-J1-PDC complex spheroid viability	II
CC(C)c1c(-c2ccccc2)nc2c(C#N)c[nH]n2c1=O + NC1CC1c1ccc(-c2cccc(O)c2)cc1	324938-238-R-J1-PDC complex spheroid viability	III
COc1ccc([C@@H](O)c2cc(-c3ncnc4cc(N5CCOCC5)ccc34)c(F)cc2Cl)nn1 + NC1CC1c1ccc(-c2cccc(O)c2)cc1	324938-238-R-J1-PDC complex spheroid viability	II
O=C(c1cc(Cc2n[nH]c(=O)c3ccccc23)ccc1F)N1CCN(C(=O)C2CC2)CC1 + NC1CCC(NC2CC2c2ccccc2)CC1	324938-238-R-J1-PDC complex spheroid viability	II
CC1(C)CCC(CN2CCN(c3ccc(C(=O)NS(=O)(=O)c4ccc(NCC5CCOCC5)c([N+](=O)[O-])c4)c(Oc4cnc5[nH]ccc5c4)c3)CC2)=C(c2ccc(Cl)cc2)C1 + NC1CCC(NC2CC2c2ccccc2)CC1	324938-238-R-J1-PDC complex spheroid viability	II
CC(C)c1c(-c2ccccc2)nc2c(C#N)c[nH]n2c1=O + NC1CCC(NC2CC2c2ccccc2)CC1	324938-238-R-J1-PDC complex spheroid viability	III
CC1COCCN1c1cc(C2(S(C)(=N)=O)CC2)nc(-c2ccnc3[nH]ccc23)n1 (stereo not given) + NC1CC1c1ccc(-c2cccc(O)c2)cc1	324938-238-R-J1-PDC complex spheroid viability	I
CC1COCCN1c1cc(C2(S(C)(=N)=O)CC2)nc(-c2ccnc3[nH]ccc23)n1 (stereo not given) + NC1CCC(NC2CC2c2ccccc2)CC1	324938-238-R-J1-PDC complex spheroid viability	I
O=C(c1cc(Cc2n[nH]c(=O)c3ccccc23)ccc1F)N1CCN(C(=O)C2CC2)CC1 + NC1CC1c1ccc(-c2cccc(O)c2)cc1	324938-238-R-J1-PDC complex spheroid viability	II

====

Tested on: 324938-238-R-J1-PDC complex spheroid viability
Test: Anticancer human tumor 324938-238-R-J1-PDC cell line growth inhibition; active = viability on the fitted dose curve at most 10% of control; inactive = the rest;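 further: spheroids also contain HUVEC and human MSCs and agents combined with iadademstat; spheroids exposed to agents for 7 days before readout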
Settings: second compound 0.316 µM; first compound 0.1 µM
Outcomes: Y = active, N = inactive

COMPOUND	CLASS_LABEL
CC1COCCN1c1cc(C2(S(C)(=N)=O)CC2)nc(-c2ccnc3[nH]ccc23)n1 (configuration not stated) + NC1CCC(NC2CC2c2ccccc2)CC1	N
O=C(c1cc(Cc2n[nH]c(=O)c3ccccc23)ccc1F)N1CCN(C(=O)C2CC2)CC1 + NC1CCC(NC2CC2c2ccccc2)CC1	N
CC1COCCN1c1cc(-c2ccnn2C)c2ccnc(-c3ccn[nH]3)c2n1 (configuration not stated) + NC1CC1c1ccc(-c2cccc(O)c2)cc1	N
O=C(C=Cn1cnc(-c2cc(C(F)(F)F)cc(C(F)(F)F)c2)n1)NNc1cnccn1 + NC1CCC(NC2CC2c2ccccc2)CC1	Y
Cn1ncnc1C1c2n[nH]c(=O)c3cc(F)cc(c23)NC1c1ccc(F)cc1 (configuration not stated) + NC1CCC(NC2CC2c2ccccc2)CC1	N
CC(C)CC(NC(=O)CNC(=O)c1cc(Cl)ccc1Cl)B1OC(=O)CC(CC(=O)O)(C(=O)O)O1 (configuration not stated) + NC1CC1c1ccc(-c2cccc(O)c2)cc1	Y
CC[C@@]1(O)C(=O)OCc2c1cc1n(c2=O)Cc2cc3c(CN(C)C)c(O)ccc3nc2-1 + NC1CC1c1ccc(-c2cccc(O)c2)cc1	Y

====

System: 324938-238-R-J1-PDC complex spheroid viability
Test: Anticancer human tumor 324938-238-R-J1-PDC cell line growth inhibition;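 further: spheroids also contain HUVEC and human MSCs and agents combined with iadademstat; spheroids exposed to agents for 7 days before readout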
Settings: second compound 1 µM; first compound 0.3 µM; stronger effect = lower value
viability, T/C under 20% gets Yes, anything at or over 20% gets No.

COMPOUND	CLASS_LABEL
COc1cc(C2c3cc4c(cc3C(OC3OC5COC(C)OC5C(O)C3O)C3COC(=O)C23)OCO4)cc(OC)c1O (configuration not stated) + NC1CCC(NC2CC2c2ccccc2)CC1	No
Nc1ccccc1NC(=O)c1ccc(CNC(=O)OCc2cccnc2)cc1 + NC1CCC(NC2CC2c2ccccc2)CC1	No
Nc1ccccc1NC(=O)c1ccc(CNC(=O)OCc2cccnc2)cc1 + NC1CC1c1ccc(-c2cccc(O)c2)cc1	No
O=C(C=Cc1cccc(S(=O)(=O)Nc2ccccc2)c1)NO + NC1CCC(NC2CC2c2ccccc2)CC1	No
Nc1ccn(C2OC(CO)C(O)C2(F)F)c(=O)n1 (configuration not stated) + NC1CC1c1ccc(-c2cccc(O)c2)cc1	Yes
CCc1c2c(nc3ccc(O)cc13)-c1cc3c(c(=O)n1C2)COC(=O)[C@]3(O)CC + NC1CC1c1ccc(-c2cccc(O)c2)cc1	Yes
